Reference for the values: patent US20200131274A1

target: human prostate specific membrane antigen (PSMA), full-length, on cells (human, UniProt Q04609 1-750); experiment: cell-based or functional assay
Sequence (Q04609 whole entry): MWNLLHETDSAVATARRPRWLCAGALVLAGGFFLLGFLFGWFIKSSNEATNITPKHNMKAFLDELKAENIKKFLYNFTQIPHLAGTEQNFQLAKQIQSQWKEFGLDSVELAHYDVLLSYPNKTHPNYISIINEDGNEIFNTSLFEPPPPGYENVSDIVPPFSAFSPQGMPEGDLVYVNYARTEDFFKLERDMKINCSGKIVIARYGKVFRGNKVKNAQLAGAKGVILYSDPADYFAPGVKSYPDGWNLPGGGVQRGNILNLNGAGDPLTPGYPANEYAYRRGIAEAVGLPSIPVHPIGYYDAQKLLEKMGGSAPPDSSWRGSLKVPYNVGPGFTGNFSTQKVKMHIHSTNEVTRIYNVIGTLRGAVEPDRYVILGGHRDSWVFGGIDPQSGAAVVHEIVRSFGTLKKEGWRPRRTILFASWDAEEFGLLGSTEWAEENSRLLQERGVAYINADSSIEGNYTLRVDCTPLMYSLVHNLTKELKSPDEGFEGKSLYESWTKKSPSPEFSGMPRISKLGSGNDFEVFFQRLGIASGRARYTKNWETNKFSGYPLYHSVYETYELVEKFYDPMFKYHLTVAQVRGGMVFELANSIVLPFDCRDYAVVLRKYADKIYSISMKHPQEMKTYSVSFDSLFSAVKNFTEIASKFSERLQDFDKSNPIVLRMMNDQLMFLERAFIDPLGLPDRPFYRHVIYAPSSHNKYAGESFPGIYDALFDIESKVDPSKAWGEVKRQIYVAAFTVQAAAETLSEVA
metric: His-ZAP cell killing, human PSMA Average EC50 (nM)
Give bare numbers, in nM.

Worked cases, answers included:
single VH domain antibody 1.18 (VHH, Human single VH domain antibody (Humabody)) VHH: EVQLLESGGGLVQPGGSLRLSCAASGFSFSSYALSWVRQAPGKGLEWVSSIGENNATTDYAASVKGRFTISRDNSKNTLYLQMNSLRVEDTAVYYCVKDGVHWGQGTLVTVSS = 0.023
1.11-6GS-2.22 (bispecific antibody, linker (G4S)6; also called 1.11-2.22; 1.11-6GS-2.22His) EVQLLESGGGLVQPGGSLRLSCAASGFSFSSYALSWVRQAPGKGLEWVSSIGENNDTTDYADNVKGRFTISRDNSKNTLYLQMNSLRVEDTAVYYCVKDGVHWGQGTLVTVSSGGGGSGGGGSGGGGSGGGGSGGGGSGGGGSEVQLVESGGGVVQPGRSLRLSCAASGFSFSGYGTHWVRQAPGKGLEWVAYISYDGSNKYYAAPVKGRFTISRDNSKNTLYLQMNSLRAEDTAVYYCAKDAAWGLRLGESSSYDFDIWGQGTMVTVSS = 0.01

Moving on to the next binder.
Q: Requested field: His-ZAP cell killing, human PSMA Average EC50. Item: 1.18-6GS-2.17 (bispecific antibody, linker (G4S)6) EVQLLESGGGLVQPGGSLRLSCAASGFSFSSYALSWVRQAPGKGLEWVSSIGENNATTDYAASVKGRFTISRDNSKNTLYLQMNSLRVEDTAVYYCVKDGVHWGQGTLVTVSSGGGGSGGGGSGGGGSGGGGSGGGGSGGGGSEVQLVESGGGVVQPGRSLRLSCAASGFSFSGYGMHWVRQAPGKGLEWVAYISYDASNKYYADNVKGRFTISRDNSKNTLYLQMNSLRAEDTAVYYCAKDPAWGLRLGESSSYDFDIWGQGTMVTVSS
Result: 0.012
